# System under test: tau fibrils (Homo sapiens, UniProt P10636)
# Sequence (P10636 560-692): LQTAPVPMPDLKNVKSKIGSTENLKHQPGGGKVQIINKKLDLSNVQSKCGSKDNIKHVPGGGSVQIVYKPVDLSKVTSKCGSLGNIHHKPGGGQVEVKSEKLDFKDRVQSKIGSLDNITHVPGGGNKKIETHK
# Assay notes: biochemical
pKi: −log10 of the molar value.
Param threshold (7) applies to pKi; output TRUE when value >= threshold, FALSE when value < threshold.

| Compound | Classification |
| --- | --- |
| CN(C)c1ccc(/C=C/C=C2C(=O)N(Cc3ccccc3)c3ccccc32)cc1 [Compound 26] | FALSE |
| CN(C)c1ccc(/C=C/C=C2C(=O)N(c3ccccc3)c3ccccc32)cc1 [Compound 36] | FALSE |
| Nc1ccc(/C=C/C=C2C(=O)Nc3ccccc32)cc1 [Compound 47] | TRUE |
| CCOC(=O)N1C(=O)C(=C/C=C/c2ccc(N(C)C)cc2)c2ccccc21 [Compound 30] | FALSE |
| CN(C)c1ccc(/C=C/C=C2C(=O)N(C)c3ccccc32)cc1 [Compound 25] | FALSE |
| COc1ccc(CN2C(=O)C(=C/C=C/c3ccc(N(C)C)cc3)c3ccccc32)cc1 [Compound 27] | FALSE |
| CN(C)c1ccc(/C=C/C=C2C(=O)Nc3ccc(O)cc32)cc1 [Compound 22] | TRUE |
| COc1ccc(/C=C/C=C2C(=O)Nc3ccccc32)cc1 [Compound 19] | FALSE |
| CN(C)c1ccc(/C=C/C=C2C(=O)Nc3ncccc32)cc1 [Compound 21] | TRUE |

----------
# System under test: α-syn fibrils (Homo sapiens)
# Assay notes: biochemical
pKi: −log10 of the molar value.
Outcome measure: pKi

| Mol smiles | Outcome measure | Data value |
| --- | --- | --- |
| CN(C)c1ccc(/C=C/C=C2C(=O)N(Cc3ccccc3)c3ncccc32)cc1 | pKi | 7.17 |
| CN(C)c1ccc(/C=C/C=C2C(=O)N(Cc3ccccc3)c3ccccc32)cc1 | pKi | 7.39 |
| COc1ccc(CN2C(=O)C(=C/C=C/c3ccc(N(C)C)cc3)c3cccnc32)cc1 | pKi | 7.53 |
| CN(C)c1ccc(/C=C/C=C2C(=O)N(c3ccccc3)c3ccccc32)cc1 | pKi | 7.17 |
| CN(C)c1ccc(/C=C/C=C2C(=O)Nc3ccc(O)cc32)cc1 | pKi | 7.27 |
| CN(C)c1ccc(/C=C/C=C2C(=O)N(C)c3ccccc32)cc1 | pKi | 7.20 |
| CN(C)c1ccc(/C=C/C=C2C(=O)N(Cc3ccc(N)cc3)c3ccccc32)cc1 | pKi | 7.36 |

----------
// pKi lookup, one value per entry
# System under test: α-syn fibrils (Homo sapiens, UniProt P37840)
# Assay notes: biochemical
pKi: −log10 of the molar value.
Outcome measure: pKi

| Mol smiles | Data value |
| --- | --- |
| CCOC(=O)N1C(=O)C(=C/C=C/c2ccc(N(C)C)cc2)c2ccccc21 | 7.34 |
| COc1ccc(CN2C(=O)C(=C/C=C/c3ccc(N(C)C)cc3)c3ccccc32)cc1 | 7.26 |
| Nc1ccc(/C=C/C=C2C(=O)Nc3ccccc32)cc1 | 7.35 |
| CN(C)c1ccc(/C=C/C=C2C(=O)Nc3ncccc32)cc1 | 7.94 |
| COc1ccc(/C=C/C=C2C(=O)N(Cc3ccccc3)c3ccccc32)cc1 | 7.14 |
